The reported measurements were obtained from patent US20260035382A1.

- System under test: SAE (Homo sapiens (Human))
- Sequence (Q9UBT2 whole entry): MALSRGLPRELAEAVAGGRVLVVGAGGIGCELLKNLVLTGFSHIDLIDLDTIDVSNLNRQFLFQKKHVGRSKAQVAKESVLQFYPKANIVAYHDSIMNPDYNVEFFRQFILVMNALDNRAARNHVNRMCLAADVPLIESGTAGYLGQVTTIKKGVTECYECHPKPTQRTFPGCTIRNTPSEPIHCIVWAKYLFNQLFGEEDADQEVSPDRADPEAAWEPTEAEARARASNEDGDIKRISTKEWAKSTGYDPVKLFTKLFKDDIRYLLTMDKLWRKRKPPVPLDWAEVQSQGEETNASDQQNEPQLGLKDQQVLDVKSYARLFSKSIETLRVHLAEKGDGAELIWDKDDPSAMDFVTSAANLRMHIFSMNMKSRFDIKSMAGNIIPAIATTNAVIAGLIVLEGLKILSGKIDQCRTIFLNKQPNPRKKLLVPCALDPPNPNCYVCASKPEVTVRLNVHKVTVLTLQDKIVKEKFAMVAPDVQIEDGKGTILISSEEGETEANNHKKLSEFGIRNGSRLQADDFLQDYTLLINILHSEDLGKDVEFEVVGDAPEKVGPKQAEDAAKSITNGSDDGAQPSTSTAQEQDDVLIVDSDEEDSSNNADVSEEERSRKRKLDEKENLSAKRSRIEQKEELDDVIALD
- Sequence (Q9UBE0 whole entry partner): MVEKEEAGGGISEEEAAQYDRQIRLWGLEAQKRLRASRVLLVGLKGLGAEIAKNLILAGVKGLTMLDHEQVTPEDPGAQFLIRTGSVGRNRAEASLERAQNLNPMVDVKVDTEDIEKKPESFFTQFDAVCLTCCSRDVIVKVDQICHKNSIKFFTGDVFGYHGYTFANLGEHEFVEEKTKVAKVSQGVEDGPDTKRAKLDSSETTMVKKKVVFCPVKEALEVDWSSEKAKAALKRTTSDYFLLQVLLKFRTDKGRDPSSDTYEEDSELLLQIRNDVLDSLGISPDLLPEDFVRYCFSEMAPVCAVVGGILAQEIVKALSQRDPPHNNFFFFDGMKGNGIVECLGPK
- Measurement description: In vitro inhibitory activity assay against SAE (SUMO-2/3 immunofluorescence in HCT116 cells)
- Format: cell-based
- Measurement context: 6 h incubation, class symbols, read-out: SUMO IF IC50
pIC50: −log10 of the molar value.
Give measured pIC50 for each item. Keep answers brief.

Query: So what does the record say about pIC50 for NS(=O)(=O)OC[C@H]1C[C@@H](Nc2ncncc2C(=O)c2cc3c(s2)CCC[C@@]32NCC3(CC3)c3ccc(Cl)cc32)C[C@@H]1O ?
Reply: < 6.70

Query: Which value of pIC50 has been reported for NS(=O)(=O)OC[C@H]1C[C@@H](Nc2ncncc2C(=O)c2cc3c(s2)CCC32NCCc3ccncc32)C[C@@H]1O (stereo partly drawn) in the records?
Reply: 6.70 to 7.30

Query: Give the measured pIC50 of NS(=O)(=O)OC[C@H]1C[C@@H](Nc2ncncc2C(=O)c2cc3c(s2)OC[C@]32NCCc3ccccc32)C[C@@H]1O .
Reply: 6.70 to 7.30

Query: Value lookup for pIC50; key = NS(=O)(=O)OC[C@H]1C[C@@H](Nc2ncncc2C(=O)c2cc3c(s2)COC[C@]32NCCc3cc(F)c(Cl)cc32)C[C@@H]1O
Reply: 6.70 to 7.30

Query: Entry CCN1Cc2sc(C(=O)c3cncnc3N[C@@H]3C[C@H](COS(N)(=O)=O)[C@@H](O)C3)cc2[C@]2(C1)OCCc1ccc(Cl)cc12 : reported pIC50 = ?
Reply: ≥ 7.30

Query: Please report the recorded pIC50 for NS(=O)(=O)OC[C@H]1C[C@@H](Nc2ncncc2C(=O)c2cc3c(s2)C=C[C@@]32OCCc3ccc(Cl)cc32)C[C@@H]1O .
Reply: < 6.70
